- system.name: Mitogen-activated protein kinase; ERK1/ERK2 (Homo sapiens, UniProt P27361+P28482)
- measurement.description: Inhibition of ERK1/2 phosphorylation in human PANC-1 cells incubated for 3 hrs
- Format: cell-based
// boundary case: IC50 equal to 5 nM maps to not satisfied; strictly smaller maps to satisfied

Criterion: IC50 strictly below 5 nM. Is it met by Oc1cc(-c2nc3c4c(nc(OC[C@@]56CCCN5C[C@H](F)C6)nc4c2F)N2CC4CCC(N4)C2CO3)c2c(Cl)cccc2c1 (stereo partly drawn) ?
not satisfied

Input Oc1cc(Cl)c(C2CC2)c(-c2nc3c4c(nc(OC[C@@]56CCCN5C[C@H](F)C6)nc4c2F)N2CC4CCC(N4)C2CO3)c1 (stereo partly drawn)
not satisfied

Record: `C#Cc1c(F)ccc2cccc(-c3nc4c5c(nc(OC[C@@]67CCCN6C[C@H](F)C7)nc5c3F)N3C[C@H]5CC[C@H](N5)[C@H]3CO4)c12`
satisfied

Input C#Cc1c(F)ccc2cc(O)cc(-c3ncc4c(N5C[C@H]6CC[C@@H](C5)N6)nc(OC[C@@]56CCCN5C[C@H](F)C6)nc4c3F)c12 [MRTX-1133]
satisfied

Cool, now `CCc1c(F)ccc2cc(O)cc(-c3nc4c5c(nc(OC[C@@]67CCCN6C[C@H](F)C7)nc5c3F)N3C[C@H]5CC[C@H](N5)[C@H]3CO4)c12`
satisfied

Try this compound next: C#Cc1c(F)ccc2cccc(-c3nc4c5c(nc(OC[C@@]67CCCN6C[C@H](F)C7)nc5c3F)N3CC5CCC(N5)C3CO4)c12 (stereo partly drawn)
not satisfied

Queued: `C#Cc1cccc2cccc(-c3nc4c5c(nc(OC[C@@]67CCCN6C[C@H](F)C7)nc5c3F)N3C[C@H]5CC[C@H](N5)[C@H]3CO4)c12`
not satisfied

====

- measurement.description: Oral bioavailability in Balb/c mouse at 30 mg/kg measured for 24 hrs by UPLC-MS/MS analysis
- Type: ADME, organism-based
- condition.details: in vivo
value.kind: bioavailability (%)
All answers are understood in %, so give the number only.

Which measured bioavailability value corresponds to `C#Cc1cccc2cccc(-c3nc4c5c(nc(OC[C@@]67CCCN6C[C@H](F)C7)nc5c3F)N3C[C@H]5CC[C@H](N5)[C@H]3CO4)c12` ?
39.2

// next record `C#Cc1c(F)ccc2cccc(-c3nc4c5c(nc(OC[C@@]67CCCN6C[C@H](F)C7)nc5c3F)N3C[C@H]5CC[C@H](N5)[C@H]3CO4)c12`
37.7

Then what about the compound C#Cc1c(F)ccc2cc(O)cc(-c3ncc4c(N5C[C@H]6CC[C@@H](C5)N6)nc(OC[C@@]56CCCN5C[C@H](F)C6)nc4c3F)c12 [MRTX-1133] ?
0.66
